# Test system: LCK (mouse)
# protocol.notes: radiometric filter-binding kinase assay
# run.parameters: compound 1.0 µM; accession and sequence are those of the human protein
residual activity listing for selected molecules.
// note: answer is a bare numeric in %

Answered examples (3):
{"molecule": "O=C1Nc2nc(-c3c(O)cccc3OCC3CC3)cc(C3CCCNC3)c2CO1 (stereo not given)", "study.system": "LCK (mouse)", "residual activity, %": 88}
{"molecule": "NC1(c2ccc(-c3nc4ccn5c(=O)[nH]nc5c4cc3-c3ccccc3)cc2)CCC1", "study.system": "LCK (mouse)", "residual activity, %": 112}
{"molecule": "Cn1c(=O)c2c(ncn2C)n(C)c1=O", "study.system": "LCK (mouse)", "residual activity, %": 92}

**Q:** // query residual activity value for entry CC1=C(CO)C(=O)O[C@@H]([C@@H](C)[C@H]2CC[C@H]3[C@@H]4C[C@H]5O[C@]56[C@@H](O)C=CC(=O)[C@]6(C)C4CC[C@]23C)C1 (stereo not given in full)
**A:** 111

**Q:** Follow-up entry: NC(=O)c1cc2c(-c3cccc(-c4ccccc4)c3)cnc(N)c2s1
**A:** 88
